# Tested on: CCRF-CEM
# assay text: Cytotoxicity against human CCRF-CEM cells after 72 hrs by MTT assay
# Type: functional
# assay context: read-out: LC50 (the source's name)

# compound, measured target, CC50
rows = [
    ("COc1ccc(CNc2nc([SeH])nc3ccccc23)cc1", "CCRF-CEM", "> 100 µM"),
    ("CCCCC[Se]c1nc(N)c2cccnc2n1", "CCRF-CEM", "72.6 µM"),
    ("[SeH]c1nc([SeH])c2ccccc2n1", "CCRF-CEM", "9.03 µM"),
    ("[SeH]c1nc(NCc2ccccc2)c2ccccc2n1", "CCRF-CEM", "> 100 µM"),
    ("COc1ccc(CNc2nc(S)nc3ccccc23)cc1", "CCRF-CEM", "71.6 µM"),
    ("CSc1ccc(CNc2nc(SC)nc3ccccc23)cc1", "CCRF-CEM", "> 100 µM"),
    ("CSc1nc(NCc2ccccc2)c2ccccc2n1", "CCRF-CEM", "> 100 µM"),
    ("[Se]=C=NCc1ccccc1 [BENZYLISOSELENOCYANATE]", "CCRF-CEM", "86.7 µM"),
    ("C[Se]c1nc([Se]C)c2ccccc2n1", "CCRF-CEM", "78.5 µM"),
    ("Nc1nc([SeH])nc2ccccc12", "CCRF-CEM", "79.1 µM"),
    ("CCCCC[Se]c1nc(NCc2ccccc2)c2ccccc2n1", "CCRF-CEM", "> 100 µM"),
    ("CCCCC[Se]c1nc([Se]CCCCC)c2cccnc2n1", "CCRF-CEM", "> 100 µM"),
    ("CCCCCSc1nc(O)c2ccccc2n1", "CCRF-CEM", "> 100 µM"),
    ("CSc1nc(NCCc2ccccc2)c2ccccc2n1", "CCRF-CEM", "> 100 µM"),
    ("CSc1nc(NCc2ccc([Se]C)cc2)c2ccccc2n1", "CCRF-CEM", "> 100 µM"),
    ("C[Se]c1nc(N)c2ccccc2n1", "CCRF-CEM", "> 100 µM"),
    ("CCCCC[Se]c1nc([Se]CCCCC)c2ccccc2n1", "CCRF-CEM", "> 100 µM"),
    ("COc1cc([C@@H]2c3cc4c(cc3[C@@H](O[C@@H]3O[C@@H]5CO[C@@H](C)O[C@H]5[C@H](O)[C@H]3O)[C@H]3COC(=O)[C@H]23)OCO4)cc(OC)c1O [ETOPOSIDE]", "CCRF-CEM", "> 100 µM"),
    ("Nc1nc([SeH])nc2ncccc12", "CCRF-CEM", "92.1 µM"),
    ("CSc1ccc(CNc2nc([Se]C)nc3ccccc23)cc1", "CCRF-CEM", "> 100 µM"),
    ("CSc1ccc(CNc2nc(SC)nc3ncccc23)cc1", "CCRF-CEM", "59 µM"),
]
